// compounds with Ki on human PDE10A2 (Homo sapiens (Human), UniProt Q9Y233), multi-source literature
endpointName: Ki (nM)

compound	Ki / nM
COc1ccc([C@H]2C[C@@H]2COc2nc(C)ncc2-c2ccn(C)c(=O)c2C#N)nc1	8.16
Cc1ccc([C@H]2C[C@@H]2COc2nc(C)ncc2-c2ccc(F)c(F)c2)nc1	1.11
Cc1nc(C)n(-c2cc([C@H]3C[C@@H]3c3nc4ccccc4n3C)nc(NC(C)(C)C)n2)n1 (relative stereo)	1.7
COc1ccc([C@H]2C[C@@H]2COc2nc(C)ncc2-c2ccnc(OC(C)C)c2)nc1	0.18
CC(=O)Nc1ncccc1-c1cc(N2CC(c3nc4ccccc4n3C)C2)nc(C)n1	75

(I) CC[C@]1(O)CC[C@@H](c2cnc(C)nc2OC[C@H]2C[C@@H]2c2ccc(C)cn2)CC1
(II) CCn1nnnc1-c1ccc(-c2cnc(C)nc2OC[C@H]2C[C@@H]2c2ccc(OC)cn2)cc1
(III) COc1ccc([C@H]2C[C@@H]2COc2nc(C)ncc2-c2cc(=O)n(C)cc2C(F)(F)F)nc1
Q: rank_up(items): orders items by reported Ki in ascending numerical order. Thanks in advance for listing the labels in the requested order.
Ans: II, III, I
